tested on: Tetrahymena pyriformis; assay: 48 h IGC50 (-log10 mol/L); higher = more toxic
measured_endpoint: 48 h IGC50 (-log10 mol/L)

# annotated cases, reported 48 h IGC50 (-log10 mol/L) shown
chemical_structure: CCCCC#N
measured_target: Tetrahymena pyriformis
48 h IGC50 (-log10 mol/L): 1.99

chemical_structure: CCCCC/C=C/C(C)=O
measured_target: Tetrahymena pyriformis
48 h IGC50 (-log10 mol/L): 3.98

chemical_structure: CN(C)c1ccc(/C=C/C=O)cc1
measured_target: Tetrahymena pyriformis
48 h IGC50 (-log10 mol/L): 3.52

Q: Any idea what 48 h IGC50 (-log10 mol/L) was measured for O=Cc1ccc(Cl)s1 ?
Ans: 3.62

Q: Any idea what 48 h IGC50 (-log10 mol/L) was measured for C=C(C=O)CCCC ?
Ans: 4.07

Q: Any idea what 48 h IGC50 (-log10 mol/L) was measured for CO ?
Ans: 0.334

Q: Any idea what 48 h IGC50 (-log10 mol/L) was measured for CCC#CCO ?
Ans: 2.43

Q: Any idea what 48 h IGC50 (-log10 mol/L) was measured for N#Cc1ccc[nH]1 ?
Ans: 2.42

Q: Any idea what 48 h IGC50 (-log10 mol/L) was measured for O=[N+]([O-])c1cc(Cl)c(Cl)c(Cl)c1Cl ?
Ans: 4.78

###

tested on: Tetrahymena pyriformis; experiment: 48 h IGC50 (-log10 mol/L); higher = more toxic
Each entry gets n if its 48 h IGC50 (-log10 mol/L) stays under 3, and y if its 48 h IGC50 (-log10 mol/L) is 3 or above.

compound: c1ccccc1
assigned_class: n
--
compound: Cc1cc([N+](=O)[O-])ccc1Br
assigned_class: y
--
compound: Cc1ccc2nc(C)ccc2c1
assigned_class: y
--
compound: OCCCCCl
assigned_class: n
--
compound: Cc1cc2ccccc2o1
assigned_class: y

Q: Does O=Cc1ccccc1Br have a reported 48 h IGC50 (-log10 mol/L) of at least 3?
Ans: y

Q: Does CCCCOC(=O)CCCCCCC(=O)OCCCC have a reported 48 h IGC50 (-log10 mol/L) of at least 3?
Ans: y

Q: Does CCC(Cl)C(N)=O (configuration not stated) have a reported 48 h IGC50 (-log10 mol/L) of at least 3?
Ans: n

Q: Does Oc1c(F)c(F)c(F)c(F)c1F have a reported 48 h IGC50 (-log10 mol/L) of at least 3?
Ans: y

Q: Does C=CCO have a reported 48 h IGC50 (-log10 mol/L) of at least 3?
Ans: n

Q: Does O/N=C/c1ccccc1O have a reported 48 h IGC50 (-log10 mol/L) of at least 3?
Ans: y

Q: Does CCCCCO have a reported 48 h IGC50 (-log10 mol/L) of at least 3?
Ans: n

Q: Does Oc1ccc(Cl)cc1O have a reported 48 h IGC50 (-log10 mol/L) of at least 3?
Ans: y

Q: Does Cc1ccc(O)c(Br)c1 have a reported 48 h IGC50 (-log10 mol/L) of at least 3?
Ans: y

Q: Does c1ccc(Cc2ccncc2)cc1 have a reported 48 h IGC50 (-log10 mol/L) of at least 3?
Ans: y

Q: Does COc1ccc([N+](=O)[O-])cc1 have a reported 48 h IGC50 (-log10 mol/L) of at least 3?
Ans: y

Q: Does CCC(CC)COC(C)=O have a reported 48 h IGC50 (-log10 mol/L) of at least 3?
Ans: n
